Origin of the recorded values: patent US5591741A

Exercise: for every item that follows, state its recorded disease control rating PIP.
- Test system: Phytophthora infestans
- Type: in vivo
- Setup conditions: tomato, direct protectant foliar spray

Supply recorded disease control rating PIP for CC(C)(C)NC1COC2(CCC(C(C)(C)C)CC2)C1 (centres unmarked) here.
2 (greater than 80% disease control)

Supply recorded disease control rating PIP for CN(C1CCCCC1)C1COC2(CCC(C(C)(C)C)CC2)C1 (centres unmarked) [Compound 20] here.
0 (less than 50% disease control)

Supply recorded disease control rating PIP for CC1CCCCN1C1COC2(CCC(C(C)(C)C)CC2)C1 (centres unmarked) here.
0 (less than 50% disease control)

Supply recorded disease control rating PIP for CCCCCN(CCCC)C1COC2(CCC(C(C)(C)C)CC2)C1 (centres unmarked) here.
0 (less than 50% disease control)

Supply recorded disease control rating PIP for CN(C)C1COC2(CCC(C(C)(C)C)CC2)C1 (centres unmarked) here.
2 (greater than 80% disease control)

Supply recorded disease control rating PIP for CCCCCCCCCCCCNC1COC2(CCC(C(C)(C)C)CC2)C1 (centres unmarked) here.
0 (less than 50% disease control)

Supply recorded disease control rating PIP for CCCN(CC1CCCCC1)C1COC2(CCC(C(C)(C)C)CC2)C1 (centres unmarked) here.
2 (greater than 80% disease control)

Supply recorded disease control rating PIP for CCCCCCCNC1COC2(CCC(C(C)(C)C)CC2)C1 (centres unmarked) here.
0 (less than 50% disease control)
